Here, each record is paired with measured Km data.
target: T1, internally quenched fluorogenic peptide (FRET substrate), Ac-DED(EDANS)EEαAbuψ[COO]ASK(DABCYL)-NH2
T1 chain: DEDEEXASK
OUTCOME MEASURE: Km (µM)

- D168A mutant HCV NS3 serine protease domain, genotype 1b (protein) APITAYSQQTRGLLGCIITSLTGRDRNQVEGEVQVVSTATQSFLATCVNGVCWTVYHGAGSKTLAGPKGPITQMYTNVDQDLVGWQAPPGARSLTPCTCGSSDLYLVTRHADVIPVRRRGDSRGSLLSPRPVSYLKGSSGGPLLCPSGHAVGIFRAAVCTRGVAKAVAFVPVESMETTMRSHHHHHH: 2
- A156S mutant HCV NS3 serine protease domain, genotype 1b (protein) APITAYSQQTRGLLGCIITSLTGRDRNQVEGEVQVVSTATQSFLATCVNGVCWTVYHGAGSKTLAGPKGPITQMYTNVDQDLVGWQAPPGARSLTPCTCGSSDLYLVTRHADVIPVRRRGDSRGSLLSPRPVSYLKGSSGGPLLCPSGHAVGIFRSAVCTRGVAKAVDFVPVESMETTMRSHHHHHH: 0.9
- D168V mutant HCV NS3 serine protease domain, genotype 1b (protein) APITAYSQQTRGLLGCIITSLTGRDRNQVEGEVQVVSTATQSFLATCVNGVCWTVYHGAGSKTLAGPKGPITQMYTNVDQDLVGWQAPPGARSLTPCTCGSSDLYLVTRHADVIPVRRRGDSRGSLLSPRPVSYLKGSSGGPLLCPSGHAVGIFRAAVCTRGVAKAVVFVPVESMETTMRSHHHHHH: 1.2
